Biological target: T1, hIL-4Rα on cells (human, UniProt P24394 26-825)
T1 sequence: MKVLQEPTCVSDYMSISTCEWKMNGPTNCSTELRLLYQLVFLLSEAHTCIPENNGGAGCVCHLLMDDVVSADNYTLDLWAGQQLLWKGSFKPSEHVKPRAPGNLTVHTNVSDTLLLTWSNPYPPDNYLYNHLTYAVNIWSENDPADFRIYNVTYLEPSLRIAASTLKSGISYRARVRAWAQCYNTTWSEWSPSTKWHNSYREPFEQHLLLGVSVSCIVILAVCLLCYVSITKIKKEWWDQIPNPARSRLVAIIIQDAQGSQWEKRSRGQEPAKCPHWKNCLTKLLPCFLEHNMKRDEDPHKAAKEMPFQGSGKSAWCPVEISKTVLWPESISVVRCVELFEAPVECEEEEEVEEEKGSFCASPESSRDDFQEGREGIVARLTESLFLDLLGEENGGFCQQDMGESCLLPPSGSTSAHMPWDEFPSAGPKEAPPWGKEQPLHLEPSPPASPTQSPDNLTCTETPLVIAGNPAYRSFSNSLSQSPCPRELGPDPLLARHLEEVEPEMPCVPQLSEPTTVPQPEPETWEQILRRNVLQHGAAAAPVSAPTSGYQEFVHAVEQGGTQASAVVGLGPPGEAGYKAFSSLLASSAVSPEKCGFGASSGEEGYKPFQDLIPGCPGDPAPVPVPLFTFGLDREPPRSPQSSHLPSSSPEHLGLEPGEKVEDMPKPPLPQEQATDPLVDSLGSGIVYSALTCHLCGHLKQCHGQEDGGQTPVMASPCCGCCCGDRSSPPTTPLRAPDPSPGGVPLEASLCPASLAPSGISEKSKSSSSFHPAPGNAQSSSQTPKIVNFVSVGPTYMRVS
Assay: FACS on HEK293 cells, competitor biotin-hIL-13
Reported IC50 is given for each of the following binders.
attribute_measured: IC50 (nM)

binder	attribute_measured	units_text	result_value
Construct 13 (mAb422) with IgG1 YTE LALA heavy chain constant region (antibody, V domains shown) VH: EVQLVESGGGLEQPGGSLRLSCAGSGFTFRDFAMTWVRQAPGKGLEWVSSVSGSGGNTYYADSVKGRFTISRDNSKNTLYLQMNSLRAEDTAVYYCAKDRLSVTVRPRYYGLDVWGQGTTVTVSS VL: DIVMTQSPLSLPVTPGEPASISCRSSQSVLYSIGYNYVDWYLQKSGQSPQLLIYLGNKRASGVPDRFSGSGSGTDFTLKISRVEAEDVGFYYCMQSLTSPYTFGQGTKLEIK	IC50	nM	0.235
Construct 31 (mAb443) with IgG1 YTE LALA heavy chain constant region (antibody, V domains shown) VH: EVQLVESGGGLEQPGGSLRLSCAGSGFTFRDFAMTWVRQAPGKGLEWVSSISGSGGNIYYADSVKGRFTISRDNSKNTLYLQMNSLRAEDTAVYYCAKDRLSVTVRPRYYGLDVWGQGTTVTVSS VL: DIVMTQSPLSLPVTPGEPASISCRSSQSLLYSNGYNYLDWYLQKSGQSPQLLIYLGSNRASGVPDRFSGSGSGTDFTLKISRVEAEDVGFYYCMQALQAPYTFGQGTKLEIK	IC50	nM	0.209
Construct 24 (mAb432) with IgG1 YTE LALA heavy chain constant region (antibody, V domains shown) VH: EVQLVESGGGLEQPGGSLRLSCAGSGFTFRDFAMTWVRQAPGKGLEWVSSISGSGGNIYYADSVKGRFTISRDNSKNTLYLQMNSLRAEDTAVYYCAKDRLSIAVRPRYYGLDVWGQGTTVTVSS VL: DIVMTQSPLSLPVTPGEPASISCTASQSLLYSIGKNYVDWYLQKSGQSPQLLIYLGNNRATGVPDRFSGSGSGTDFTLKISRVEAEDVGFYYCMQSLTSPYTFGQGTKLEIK	IC50	nM	0.234
Construct 38 (mAb471) with IgG1 YTE LALA heavy chain constant region (antibody, V domains shown) VH: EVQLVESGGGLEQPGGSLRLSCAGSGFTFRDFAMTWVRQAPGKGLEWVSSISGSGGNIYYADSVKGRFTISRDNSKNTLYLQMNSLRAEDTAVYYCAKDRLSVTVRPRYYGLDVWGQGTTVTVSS VL: DIVMTQSPLSLPVTPGEPASISCRSSQSLLYSIGKNYVDWYLQKSGQSPQLLIYEGNKRASGVPDRFSGSGSGTDFTLKISRVEAEDVGFYYCMQSLTSPYTFGQGTKLEIK	IC50	nM	0.226
Construct 15 (mAb423) with IgG1 YTE LALA heavy chain constant region (antibody, V domains shown) VH: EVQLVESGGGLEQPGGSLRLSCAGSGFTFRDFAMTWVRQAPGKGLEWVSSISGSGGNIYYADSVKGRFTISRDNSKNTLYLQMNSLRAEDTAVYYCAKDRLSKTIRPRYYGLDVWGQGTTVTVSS VL: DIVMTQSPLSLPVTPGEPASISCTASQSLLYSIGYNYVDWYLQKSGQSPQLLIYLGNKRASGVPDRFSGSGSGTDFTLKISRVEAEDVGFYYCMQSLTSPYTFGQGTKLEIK	IC50	nM	0.204

Value source: patent US20260193366A1
